target: T1, CCKBR N-terminal peptide BR5-21 (human, UniProt P32239 5-21); experiment: not stated in material; Kd assay buffer and method not given in material; SELEX peptide-bead incubation 60 min at 37 C
T1 chain: KLNRSVQGTGPGPGASL
quantity-name: Kd (nM)
Could you give me the number in nM? Just the number is fine.

# Kd (binder: CATGGTGCAGGTGTGGCTGGGATTCATTTGCCGGTGCTGGTGCGTCCGC (ssDNA) [AP1153 truncated (49 nt)] ) is 0.206

Value source: paper PMC5312616
